Test system: CCRF-CEM leukemia
Test: NCI tumour cell line growth inhibition, 48 h; in the data active = GI50 below about 0.43 µM; inactive = the rest
Outcomes: yes = active, no = inactive

COMPOUND	QUALITATIVE LABEL
CSc1nc(Nc2cccc(NC(=O)CCl)c2)c(C#N)c(-c2cccc([N+](=O)[O-])c2)n1	yes
Cc1cccc(N2C(=O)/C(=C/C(Cl)=C/c3ccc([N+](=O)[O-])cc3)SC2=S)c1C	no
C[C@@H]1C[C@@H]([C@H](O)CC2CC(=O)NC(=O)C2)C(=O)[C@@H](C)C1	yes
CC1=NN(c2cccc(Cl)c2)C(=O)/C1=C\c1cn(CC(O)CN2CCCCC2)c2ccccc12 (stereo not given)	no
Cn1c(COC(=O)NCCc2ccccn2)nc2c(N3CCOCC3)nc(Cl)nc21	no
